- assay_method_text: 1-octanol-phosphate buffer distribution coefficient, log D of the compound at 1 uM after 2 hrs by shake flask method at pH 7.4
- Format: physicochemical

structure_smiles: O=[N+]([O-])c1ccc2c(ccn2-c2ccc(O[C@H]3O[C@H](CO)[C@@H](O)[C@H](O)[C@@H]3O)c(F)c2)c1
logD at 2 h, 1 µM: 1.9

structure_smiles: Cn1cnc2cc(-c3ccc(O[C@H]4O[C@H](CO)[C@@H](O)[C@H](O)[C@@H]4O)c(Cl)c3)cnc21
logD at 2 h, 1 µM: 1.3

structure_smiles: O=C(O)c1ccc(-c2ccc(O[C@H]3O[C@H](CO)[C@@H](O)[C@H](O)[C@@H]3O)c(Cl)c2)cc1
logD at 2 h, 1 µM: -0.8

structure_smiles: N#Cc1cnc2c(ccn2-c2ccc(O[C@H]3O[C@H](CO)[C@@H](O)[C@H](O)[C@@H]3O)c(Cl)c2)c1
logD at 2 h, 1 µM: 1.6

structure_smiles: OC[C@H]1O[C@H](Oc2ccc(-n3ccc4ccccc43)cc2F)[C@@H](O)[C@@H](O)[C@@H]1O
logD at 2 h, 1 µM: 2.4

structure_smiles: COc1ccc2c(ccn2-c2ccc(O[C@H]3O[C@H](CO)[C@@H](O)[C@H](O)[C@@H]3O)c(Cl)c2)c1
logD at 2 h, 1 µM: 3

structure_smiles: OC[C@H]1O[C@H](Oc2ccc(-n3ccc4ccccc43)cc2Cl)[C@@H](O)[C@@H](O)[C@@H]1O
logD at 2 h, 1 µM: 1.8

structure_smiles: OC[C@H]1O[C@H](Oc2ccc(N3CCc4ccccc43)cc2Cl)[C@@H](O)[C@@H](O)[C@@H]1O
logD at 2 h, 1 µM: 2.8

structure_smiles: CS(=O)(=O)Nc1ccc2c(ccn2-c2ccc(O[C@H]3O[C@H](CO)[C@@H](O)[C@H](O)[C@@H]3O)c(Cl)c2)c1
logD at 2 h, 1 µM: 1.8

structure_smiles: OC[C@H]1O[C@H](Oc2ccc(-n3ccc4cc(Cl)cnc43)cc2Cl)[C@@H](O)[C@@H](O)[C@@H]1O
logD at 2 h, 1 µM: 3.4

structure_smiles: COC(=O)c1ccc2c(ccn2-c2ccc(O[C@H]3O[C@H](CO)[C@@H](O)[C@H](O)[C@@H]3O)c(Cl)c2)c1
logD at 2 h, 1 µM: 2.8

structure_smiles: O=[N+]([O-])c1ccc2c(c1)CCN2c1ccc(O[C@H]2O[C@H](CO)[C@@H](O)[C@H](O)[C@@H]2O)c(Cl)c1
logD at 2 h, 1 µM: 1.9

structure_smiles: OC[C@H]1O[C@H](Oc2ccc(-n3ccc4c(OCc5ccccc5)cccc43)cc2Cl)[C@@H](O)[C@@H](O)[C@@H]1O
logD at 2 h, 1 µM: 2.7

structure_smiles: O=[N+]([O-])c1ccc2c(c1)CCN2c1ccc(O[C@H]2O[C@H](CO)[C@@H](O)[C@H](O)[C@@H]2O)cc1
logD at 2 h, 1 µM: 1.9
